- target or test system: PLK4 (h) (Homo sapiens)
- Sequence (O00444 whole entry): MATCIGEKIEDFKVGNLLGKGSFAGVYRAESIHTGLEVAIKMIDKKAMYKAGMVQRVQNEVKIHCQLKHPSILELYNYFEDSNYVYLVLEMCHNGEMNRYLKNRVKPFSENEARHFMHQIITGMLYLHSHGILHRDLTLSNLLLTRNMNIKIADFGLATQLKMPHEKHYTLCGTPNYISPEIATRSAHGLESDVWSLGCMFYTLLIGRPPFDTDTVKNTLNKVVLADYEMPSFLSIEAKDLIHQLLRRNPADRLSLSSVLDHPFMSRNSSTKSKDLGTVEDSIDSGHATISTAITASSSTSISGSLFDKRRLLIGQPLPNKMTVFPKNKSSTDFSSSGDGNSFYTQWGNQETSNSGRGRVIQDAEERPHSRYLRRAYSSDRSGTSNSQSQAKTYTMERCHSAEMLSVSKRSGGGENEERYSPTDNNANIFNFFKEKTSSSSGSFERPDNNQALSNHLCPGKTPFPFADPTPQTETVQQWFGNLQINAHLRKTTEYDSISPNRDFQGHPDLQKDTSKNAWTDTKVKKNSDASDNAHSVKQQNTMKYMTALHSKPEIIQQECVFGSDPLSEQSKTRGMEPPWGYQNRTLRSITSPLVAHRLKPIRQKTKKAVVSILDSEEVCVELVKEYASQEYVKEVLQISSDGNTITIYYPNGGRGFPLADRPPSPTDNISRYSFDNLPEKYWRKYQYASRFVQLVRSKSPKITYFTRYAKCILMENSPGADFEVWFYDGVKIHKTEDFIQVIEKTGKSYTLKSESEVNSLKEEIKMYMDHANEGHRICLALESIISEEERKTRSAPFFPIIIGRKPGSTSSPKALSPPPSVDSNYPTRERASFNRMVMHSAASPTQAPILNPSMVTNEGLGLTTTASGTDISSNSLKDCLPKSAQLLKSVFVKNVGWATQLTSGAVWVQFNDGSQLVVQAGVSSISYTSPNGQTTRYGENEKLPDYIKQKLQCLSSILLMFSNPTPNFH
- assay method text: PLK-4 human kinase scintillation proximity assay (SPA)
- Type: biochemical
- condition notes: 1 μM ATP, 60 minutes at r.t., read-out: PLK4 pIC50 (converted)
For each of the compounds below, state its IC50.
Form entry: value (µM) — number only.

Data request: Form: Entry = CN1CCCN(C)C(=O)COc2cc(ccc2Cl)Nc2ncnc3[nH]cc(c23)C1 | System = PLK4 (h) (Homo sapiens) | IC50 = ____
Data returned: 0.0501

Data request: Form: Entry = COc1ccc2cc1OCC(=O)N(C)CC1CN(Cc3c[nH]c4ncnc(c34)N2)C1 | System = PLK4 (h) (Homo sapiens) | IC50 = ____
Data returned: 0.251

Data request: Form: Entry = CN1CCCN(C)C(=O)CCCOc2cc(cc(C(F)(F)F)c2)Nc2ncnc3[nH]cc(c23)C1 | System = PLK4 (h) (Homo sapiens) | IC50 = ____
Data returned: 5.01

Data request: Form: Entry = CN1CCCN(C)C(=O)COc2cc(ccc2OCCNc2ccc(Cl)cc2)Nc2ncnc3[nH]cc(c23)C1 | System = PLK4 (h) (Homo sapiens) | IC50 = ____
Data returned: 0.1

Data request: Form: Entry = CN1CCCN(C)C(=O)COc2cc(ccc2NC(=O)Nc2cc(Cl)cc(Cl)c2)Nc2ncnc3[nH]cc(c23)C1 | System = PLK4 (h) (Homo sapiens) | IC50 = ____
Data returned: 0.158

Data request: Form: Entry = CCOCCOc1ccc2cc1OCC(=O)N(C)CCCNCc1c[nH]c3ncnc(c13)N2 | System = PLK4 (h) (Homo sapiens) | IC50 = ____
Data returned: 0.0398

Data request: Form: Entry = CN1CCN(C)C(=O)COc2cc(ccc2N2CCOCC2)Nc2ncnc3[nH]cc(c23)C1 | System = PLK4 (h) (Homo sapiens) | IC50 = ____
Data returned: 0.794

Data request: Form: Entry = CN1CCCN(C)C(=O)COc2cc(ccc2OCC2CC2)Nc2ncnc3[nH]cc(c23)C1 | System = PLK4 (h) (Homo sapiens) | IC50 = ____
Data returned: 0.0398

Data request: Form: Entry = CCOc1ccc2cc1OCC(=O)N(C)CCCN(C)Cc1c[nH]c3ncnc(c13)N2 | System = PLK4 (h) (Homo sapiens) | IC50 = ____
Data returned: 0.0794

Data request: Form: Entry = COc1ccc2cc1OCCCC(=O)NCCCN(C)Cc1c[nH]c3ncnc(c13)N2 | System = PLK4 (h) (Homo sapiens) | IC50 = ____
Data returned: 0.631

Data request: Form: Entry = COCCOc1ccc2cc1OCC(=O)N(C)CCCN(C)Cc1c[nH]c3ncnc(c13)N2 | System = PLK4 (h) (Homo sapiens) | IC50 = ____
Data returned: 0.0251

Data request: Form: Entry = CN1CCN(C)C(=O)CCCCOc2cccc(c2)Nc2ncnc3[nH]cc(c23)C1 | System = PLK4 (h) (Homo sapiens) | IC50 = ____
Data returned: 3.16

Data request: Form: Entry = CN1CCCN(C)C(=O)COc2cc(ccc2OCC(=O)N2CCOCC2)Nc2ncnc3[nH]cc(c23)C1 | System = PLK4 (h) (Homo sapiens) | IC50 = ____
Data returned: 0.0501

Data request: Form: Entry = COc1ccc(NC(=O)COc2ccc3cc2OCC(=O)N(C)CCCN(C)Cc2c[nH]c4ncnc(c24)N3)cc1 | System = PLK4 (h) (Homo sapiens) | IC50 = ____
Data returned: 0.0501

---

- System: HCT-116
- assay method text: Cellular proliferation assay (Alamar blue), HCT-116
- Assay type: cell-based
- condition notes: Homo sapiens; HCT-116 cells; 10% FCS; 72 h with compound; Alamar blue 4 h; read-out: pIC50 HCT-116 (converted)
observation type: IC50

Data request: What does the record list as IC50 for CCOCCOc1cc(OC)c2cc1OCC(=O)N(C)CCCN(C)Cc1c[nH]c3ncnc(c13)N2 ?
Data returned: > 10 µM

Data request: What does the record list as IC50 for COc1ccc2cc1OCC(=O)N(C)CCCN(Cc1ccccc1)Cc1c[nH]c3ncnc(c13)N2 ?
Data returned: > 10 µM

Data request: What does the record list as IC50 for COc1ccc2cc1OCCCC(=O)N(C)CCN(C)Cc1c[nH]c3ncnc(c13)N2 ?
Data returned: > 10 µM

Data request: What does the record list as IC50 for COc1ccc2cc1OCCCC(=O)N1CCN(CC1)Cc1c[nH]c3ncnc(c13)N2 ?
Data returned: > 10 µM

Data request: What does the record list as IC50 for COc1cc2cc(c1OC)CCC(=O)N(C)CCCN(C)Cc1c[nH]c3ncnc(c13)N2 ?
Data returned: > 10 µM

Data request: What does the record list as IC50 for CN1CCCN(C)C(=O)COc2cc(ccc2OCCN2CCOCC2)Nc2ncnc3[nH]cc(c23)C1 ?
Data returned: 3.98 µM

Data request: What does the record list as IC50 for CN1CCN(c2ccc3cc2OCCCC(=O)N(C)CCN(C)Cc2c[nH]c4ncnc(c24)N3)CC1 ?
Data returned: > 10 µM

Data request: What does the record list as IC50 for CN1CCCN(C)C(=O)COc2cc(ccc2OCCCNc2ccc(Cl)cc2)Nc2ncnc3[nH]cc(c23)C1 ?
Data returned: 0.631 µM

Data request: What does the record list as IC50 for COc1ccc2cc1OCC(=O)N(C)CC1CN(Cc3c[nH]c4ncnc(c34)N2)C1 ?
Data returned: > 10 µM

Data request: What does the record list as IC50 for COc1ccc2cc1N(C)CC(=O)N(C)CCCN(C)Cc1c[nH]c3ncnc(c13)N2 ?
Data returned: 1.58 µM

Data request: What does the record list as IC50 for CCOCCOc1ccc2cc1OCC(=O)N(C)CCCN(C)Cc1c[nH]c3nc(C)nc(c13)N2 ?
Data returned: > 10 µM

Data request: What does the record list as IC50 for CN1CCN(C)C(=O)CCCCOc2cccc(c2)Nc2ncnc3[nH]cc(c23)C1 ?
Data returned: > 10 µM

Data request: What does the record list as IC50 for COc1ccc2cc1OCC(=O)N1CCCC(CN(C)CCCc3c[nH]c4ncnc(c34)N2)C1 (centres unmarked) ?
Data returned: > 10 µM

Data request: What does the record list as IC50 for COc1ccc2cc1OCCCCC(=O)N1CCN(CC1)Cc1c[nH]c3ncnc(c13)N2 ?
Data returned: > 10 µM

Data request: What does the record list as IC50 for COCCN1CC(=O)N(C)CCCc2c[nH]c3ncnc(c23)Nc2cc(c(OC)c(OC)c2)C1 ?
Data returned: > 10 µM

Data request: What does the record list as IC50 for COc1ccc2cc1OCC(=O)N(C)CCCN(Cc1ccncc1)Cc1c[nH]c3ncnc(c13)N2 ?
Data returned: > 10 µM

Data request: What does the record list as IC50 for CN1CCCN(C)C(=O)COc2cc(ccc2OCCNc2nccs2)Nc2ncnc3[nH]cc(c23)C1 ?
Data returned: 0.631 µM

Data request: What does the record list as IC50 for COc1cc2cc(c1OC)OCCCC(=O)N(C)CCN(C)Cc1c[nH]c3ncnc(c13)N2 ?
Data returned: > 10 µM

Data request: What does the record list as IC50 for CN1CCCN(C)C(=O)COc2cc(ccc2OCCO)Nc2ncnc3[nH]cc(c23)C1 ?
Data returned: > 10 µM

Data request: What does the record list as IC50 for CN1CCCN(C)C(=O)COc2cc(ccc2N2CCCC2)Nc2ncnc3[nH]cc(c23)C1 ?
Data returned: 1.26 µM

Data request: What does the record list as IC50 for COc1ccc2cc1OCC(=O)N(C)CCCN(C)Cc1c[nH]c3ncnc(c13)N2 ?
Data returned: 0.501 µM

Data request: What does the record list as IC50 for COc1ccc2cc1OCC(=O)N(C)CCN(C)Cc1c[nH]c3ncnc(c13)N2 ?
Data returned: > 10 µM

Data request: What does the record list as IC50 for CN1CCCN(C)C(=O)COc2cc(ccc2OC(F)F)Nc2ncnc3[nH]cc(c23)C1 ?
Data returned: 2 µM

Data request: What does the record list as IC50 for CN1CCCN(C)C(=O)COc2cc(ccc2Br)Nc2ncnc3[nH]cc(c23)C1 ?
Data returned: 0.501 µM

Data request: What does the record list as IC50 for CN1CCN(C)C(=O)CCCOc2cc(ccc2N2CCOCC2)Nc2ncnc3[nH]cc(c23)C1 ?
Data returned: > 10 µM

Data request: What does the record list as IC50 for COc1ccc2cc1OCC(=O)NCN(C)CCCc1c[nH]c3ncnc(c13)N2 ?
Data returned: > 10 µM

Data request: What does the record list as IC50 for COc1ccc2cc1OCC(=O)N(C)CCCNCc1c[nH]c3ncnc(c13)N2 ?
Data returned: > 10 µM

Data request: What does the record list as IC50 for CC(C)OCCOc1ccc2cc1OCC(=O)N(C)CCCN(C)Cc1c[nH]c3ncnc(c13)N2 ?
Data returned: 0.0631 µM

Data request: What does the record list as IC50 for COCCOc1ccc2cc1OCC(=O)N(C)CCCN(C)Cc1c[nH]c3ncnc(c13)N2 ?
Data returned: 0.316 µM

Data request: What does the record list as IC50 for CN1CCCN(C)C(=O)COc2cc(ccc2OCC2CCN(Cc3ccccc3)CC2)Nc2ncnc3[nH]cc(c23)C1 ?
Data returned: 0.398 µM

Data request: What does the record list as IC50 for CN1CCCN(C)C(=O)COc2cc(ccc2OCCN(C)c2nccs2)Nc2ncnc3[nH]cc(c23)C1 ?
Data returned: 0.501 µM

Data request: What does the record list as IC50 for Cc1nc2c3c(c[nH]c3n1)CN(C)CCCN(C)C(=O)COc1cc(ccc1Cl)N2 ?
Data returned: 5.01 µM

Data origin: patent US8318731B2
